# experimental_target: α4β2 nAChR (Rattus norvegicus, UniProt P09483+P12390)
# Construct: crude synaptic membrane preparations from rat cerebral cortex, striatum and hippocampus; from tissue; host or cells: rat cerebral cortex, striatum and hippocampus (crude synaptic membranes, P2 fraction)
# Sequence (P09483 31-630): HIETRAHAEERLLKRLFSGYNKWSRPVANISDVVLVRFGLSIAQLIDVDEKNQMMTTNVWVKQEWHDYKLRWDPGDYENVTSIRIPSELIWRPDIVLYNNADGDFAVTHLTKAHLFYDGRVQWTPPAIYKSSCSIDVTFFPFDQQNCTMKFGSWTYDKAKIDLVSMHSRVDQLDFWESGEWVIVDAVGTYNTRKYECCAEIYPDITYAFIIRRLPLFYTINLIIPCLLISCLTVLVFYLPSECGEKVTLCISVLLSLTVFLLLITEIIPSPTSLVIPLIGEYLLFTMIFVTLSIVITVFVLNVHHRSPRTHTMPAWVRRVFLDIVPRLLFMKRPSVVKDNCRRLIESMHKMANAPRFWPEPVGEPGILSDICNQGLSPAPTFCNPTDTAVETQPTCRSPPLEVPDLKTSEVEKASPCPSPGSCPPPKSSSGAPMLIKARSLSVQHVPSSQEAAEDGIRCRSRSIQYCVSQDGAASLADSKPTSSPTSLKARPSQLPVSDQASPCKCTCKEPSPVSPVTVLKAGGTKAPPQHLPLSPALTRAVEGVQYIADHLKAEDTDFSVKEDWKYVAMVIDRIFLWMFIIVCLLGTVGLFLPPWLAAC
# Sequence (P12390 25-500): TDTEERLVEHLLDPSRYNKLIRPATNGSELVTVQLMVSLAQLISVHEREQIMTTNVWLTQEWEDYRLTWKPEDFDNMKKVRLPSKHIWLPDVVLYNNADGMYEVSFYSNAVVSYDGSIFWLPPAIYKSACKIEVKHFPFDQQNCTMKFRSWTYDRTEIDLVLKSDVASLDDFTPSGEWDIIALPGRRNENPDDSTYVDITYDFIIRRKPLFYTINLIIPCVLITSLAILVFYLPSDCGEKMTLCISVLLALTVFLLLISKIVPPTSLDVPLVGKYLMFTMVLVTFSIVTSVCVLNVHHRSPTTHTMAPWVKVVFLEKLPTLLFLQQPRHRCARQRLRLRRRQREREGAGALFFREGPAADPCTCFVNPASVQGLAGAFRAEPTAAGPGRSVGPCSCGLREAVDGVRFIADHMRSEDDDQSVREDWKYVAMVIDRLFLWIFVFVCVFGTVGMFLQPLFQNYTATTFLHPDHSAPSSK
# measurement_protocol: Binding of 3H-cytisine to α4β2 nAChR, crude synaptic membranes
readout_kind: IC50 (nM)
Kindly answer with a numeric value in nM, unit omitted.

Quickly give me recorded IC50 for c1cncc(O[C@H]2CCCNC2)c1 [Example 11, 3-(3-(S)-Piperidinyloxy)-pyridine]
673

Hello, please tell me recorded IC50 for this one: `Clc1ccc(O[C@@H]2CCNC2)cn1`
466

Return the recorded IC50 value; entry: `C[Si](C)(C)C#Cc1ccc(-c2cc(O[C@@H]3CCNC3)cnc2Cl)cc1`
25
